subject-of-test: T1, cynomolgus monkey BCMA (cynomolgus monkey, UniProt A0A2K5UD97 1-53)
T1 construct: Soluble analyte in SPR; construct not described; also called cyBCMA; Cyno BCMA
assay-protocol: SPR, IgG on chip, cyBCMA analyte, 37C
readout-label: pKd
By convention, pKd is the negative base-10 log of a molar concentration.

query: Param item = L3.PY/L3.KF/H2.YQ (antibody, V domains shown, IgG) VH: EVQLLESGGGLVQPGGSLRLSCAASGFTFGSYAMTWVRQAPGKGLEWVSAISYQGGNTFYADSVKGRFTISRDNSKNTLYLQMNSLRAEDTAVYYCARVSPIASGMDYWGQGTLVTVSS VL: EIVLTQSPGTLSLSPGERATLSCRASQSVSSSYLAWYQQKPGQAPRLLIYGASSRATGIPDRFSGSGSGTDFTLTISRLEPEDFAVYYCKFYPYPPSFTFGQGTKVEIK ; retrieve measured pKd.
result: 8.45

query: Same read-out for L3.PY/L1.PH/H3.AQ (antibody, V domains shown, IgG) VH: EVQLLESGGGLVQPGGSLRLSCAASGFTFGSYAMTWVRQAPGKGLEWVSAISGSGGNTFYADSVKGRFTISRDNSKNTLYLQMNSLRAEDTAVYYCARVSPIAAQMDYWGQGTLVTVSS VL: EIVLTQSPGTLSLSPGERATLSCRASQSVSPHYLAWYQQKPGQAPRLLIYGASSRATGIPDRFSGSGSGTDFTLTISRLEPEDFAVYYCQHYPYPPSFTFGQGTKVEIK ?
result: 8.82

query: Another: L3.PY/L3.KY/H2.HA (antibody, V domains shown, IgG) VH: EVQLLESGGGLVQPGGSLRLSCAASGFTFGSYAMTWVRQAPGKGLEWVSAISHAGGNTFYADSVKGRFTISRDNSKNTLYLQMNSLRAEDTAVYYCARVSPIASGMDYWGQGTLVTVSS VL: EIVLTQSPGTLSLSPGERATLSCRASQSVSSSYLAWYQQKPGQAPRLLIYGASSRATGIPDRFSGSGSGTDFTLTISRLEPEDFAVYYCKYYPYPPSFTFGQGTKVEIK
result: 8.85

Each recorded value in this set is attributed to patent US20190241669A1.
